ASSAY NOTES: Half-life determination in PBS
Assay type: physicochemical
ASSAY CONTEXT: PBS, pH 7.4; read-out: 1st / Half-Life
MEASURED ENDPOINT: half-life

Input: Which half-life value is on record for CC(C)[N+](C)(CCOC(=O)C1c2ccccc2Oc2ccccc21)C(C)C [Propantheline] ?
Output: > 2 h

====

TARGET OF ASSAY: hA1R (Homo sapiens)
Sequence (P30542 whole entry): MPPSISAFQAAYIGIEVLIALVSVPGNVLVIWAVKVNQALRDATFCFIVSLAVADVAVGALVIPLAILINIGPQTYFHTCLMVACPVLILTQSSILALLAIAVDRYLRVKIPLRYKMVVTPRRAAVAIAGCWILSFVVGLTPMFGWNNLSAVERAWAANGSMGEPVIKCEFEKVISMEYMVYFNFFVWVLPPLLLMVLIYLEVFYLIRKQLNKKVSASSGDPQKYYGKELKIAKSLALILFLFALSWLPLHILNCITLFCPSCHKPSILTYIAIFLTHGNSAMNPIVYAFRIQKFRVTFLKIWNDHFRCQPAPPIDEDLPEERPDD
ASSAY NOTES: cAMP inhibition in CHO-K1-hA1R cells (forskolin co-stimulation)
MEASURED ENDPOINT: IC50 (nM)
Write it as a number; the unit nM goes unstated.

Input: Find the recorded IC50 belonging to OC[C@H]1O[C@@H](n2cnc3c(N[C@@H]4CCC[C@H]4O)ncnc32)[C@H](O)[C@@H]1O and report it.
Output: 0.832

====

TARGET OF ASSAY: hA1R:Gob (Homo sapiens)
Sequence (P30542 whole entry): as above
Sequence (P09471 2-354 isoform P09471-2 C351I partner limits assumed): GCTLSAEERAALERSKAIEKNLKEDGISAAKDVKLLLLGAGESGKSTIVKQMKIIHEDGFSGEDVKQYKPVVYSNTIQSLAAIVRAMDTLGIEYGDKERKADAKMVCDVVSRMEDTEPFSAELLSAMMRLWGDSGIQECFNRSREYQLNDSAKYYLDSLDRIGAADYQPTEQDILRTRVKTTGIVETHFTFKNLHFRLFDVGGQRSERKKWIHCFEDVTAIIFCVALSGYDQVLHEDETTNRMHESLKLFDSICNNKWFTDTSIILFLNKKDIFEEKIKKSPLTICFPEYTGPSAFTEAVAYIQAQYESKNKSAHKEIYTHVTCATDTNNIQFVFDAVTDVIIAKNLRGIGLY
ASSAY NOTES: cAMP inhibition in PTX-treated CHO-K1-hA1R cells with PTX-insensitive Gob
MEASURED ENDPOINT: EC50 (µM)
Kindly answer with a numeric value in µM, unit omitted.

Input: Suppose we examine the compound OC[C@H]1O[C@@H](n2cnc3c(N[C@@H]4CCC[C@H]4O)ncnc32)[C@H](O)[C@@H]1O ; what EC50 value has been reported?
Output: 0.603

====

Attribute: half-life
ASSAY NOTES: in vitro
ASSAY CONTEXT: human, plasma
# number then unit; no other words

COMPOUND | half-life
CCCOc1cc(N)ccc1C(=O)OCCN(CC)CC [Propoxycaine] | 3.8 min

Consider now this further compound.
Input: half-life for CC(C)[N+](C)(CCOC(=O)C1c2ccccc2Oc2ccccc21)C(C)C [Propantheline] ?
Output: 46.9 min

====

ASSAY NOTES: Half-life determination in PBS
Format: physicochemical
ASSAY CONTEXT: buffer, pH 7.4, PBS, UoBern01 at 1.00E-06 M, read-out: 1st / Half-Life
MEASURED ENDPOINT: half-life (min)
I only need the number, in min, no unit after it.

Input: Need half-life, item O=C(O)CCCc1ccc(N(CCCl)CCCl)cc1
Output: 39

====

System: native presynaptic A1Rs, rat hippocampal slices
ASSAY NOTES: Extracellular fEPSP recording, inhibition of excitatory synaptic transmission in hippocampal slices
Type: cell-based
ASSAY CONTEXT: Rattus norvegicus, read-out: IC50 inhibition of synaptic transmission
MEASURED ENDPOINT: pIC50
pIC50 (log units): -log10 of the concentration in mol/L.

Input: Which pIC50 is reported for this molecule? Nc1ncnc2c1ncn2[C@@H]1O[C@H](CO)[C@@H](O)[C@H]1O
Output: 4.70

====

ASSAY NOTES: Half-life determination in PBS
Format: physicochemical
ASSAY CONTEXT: buffer, pH 7.4, PBS, UoBern01 at 1.00E-06 M, read-out: 2nd / Half-Life
MEASURED ENDPOINT: half-life (min)
# number only, unit min dropped from output

Input: Field request: half-life | item: O=C(O)CCCc1ccc(N(CCCl)CCCl)cc1 [Chlorambucil]
Output: 52.6

====

TARGET OF ASSAY: rA2AR (Rattus norvegicus, UniProt P30543)
Construct: expressed in transfected cells
Sequence (P30543 whole entry): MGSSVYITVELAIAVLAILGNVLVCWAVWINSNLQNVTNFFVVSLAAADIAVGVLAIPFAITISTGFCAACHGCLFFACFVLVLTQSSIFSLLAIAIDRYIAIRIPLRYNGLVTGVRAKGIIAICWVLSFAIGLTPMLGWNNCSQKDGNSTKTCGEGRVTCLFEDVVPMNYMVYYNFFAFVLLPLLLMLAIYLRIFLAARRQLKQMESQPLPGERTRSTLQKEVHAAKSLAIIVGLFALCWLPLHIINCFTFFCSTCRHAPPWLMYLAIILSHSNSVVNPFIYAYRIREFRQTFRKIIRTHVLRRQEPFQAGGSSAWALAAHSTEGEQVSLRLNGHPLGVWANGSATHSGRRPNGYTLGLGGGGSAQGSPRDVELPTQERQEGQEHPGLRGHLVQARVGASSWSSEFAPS
ASSAY NOTES: NanoBRET competition binding with CA200645
MEASURED ENDPOINT: Ki

Input: What is its Ki for rA2AR (Rattus norvegicus, UniProt P30543)? Entry: OC[C@H]1O[C@@H](n2cnc3c(NC4CCCC4)ncnc32)[C@H](O)[C@@H]1O [CPA, N^6-Cyclopentyladenosine]
Output: > 100 µM
